tested on: Burkholderia mallei; experiment: microbe, parasite or virus in culture; type: cell-based; settings: read-out: MIC range
Overview of reported MIC across a group of compounds:

Record excerpt, results attached:
{"columns": ["Compound", "Target Or System", "MIC"],
 "data": [
  ["C[C@H](N)CCCc1cc(Cl)c(F)c(-c2cc3cn(-c4ccc([C@@H]5CCC[C@@H](CCNC(=N)CN)N5)cc4)c(=O)nc3[nH]2)c1", "Burkholderia mallei", "0.12 to 0.25 µg/mL"],
  ["CC(=N)NCC[C@@H]1CCC[C@@H](c2ccc(-n3cc4cc(-c5cc(CCC[C@H](C)N)cc(Cl)c5F)[nH]c4nc3=O)cc2C)N1", "Burkholderia mallei", "0.03 to 0.25 µg/mL"],
  ["C[C@H](N)CCCc1cc(Cl)c(F)c(-c2cc3cn(-c4ccc([C@@H]5CCC[C@@H](CCSC(=N)N)N5)c(F)c4)c(=O)nc3[nH]2)c1", "Burkholderia mallei", "0.03 to 0.25 µg/mL"]
]}

(Q) Field request: MIC | item: CCCN1[C@H](CCNC(C)=N)CCC[C@H]1c1ccc(-n2cc3cc(-c4cc(CCC[C@H](C)N)cc(Cl)c4F)[nH]c3nc2=O)cc1
(A) 0.03 to 0.12 µg/mL

(Q) Same thing, different compound: C[C@H](N)CCCc1cc(Cl)c(F)c(-c2cc3cn(-c4ccc([C@H]5CC[C@H](CCNC(=N)N)N5)cc4)c(=O)nc3[nH]2)c1
(A) 0.008 to 0.12 µg/mL

Source listed as patent US12152031B2.
